Hey, just so you know, these numbers are from ChEMBL document CHEMBL2034842.

Test: Cytotoxicity against human Hep2 cells assessed as cell survival fraction at 50 ug/mL after 24 hrs by trypan blue exclusion method
Assay type: cell-based
Conditions: HEp-2 cells, read-out: Survival
We label by threshold. Values of viability at 24 h, 50 ug/mL strictly beneath 40% are true (1). Values of 40% and up are false (0).

CCC/C(C)=N/Nc1nc(-c2ccc(I)cc2)cs1	false (0)

Given the entry CC1CC/C(=N\Nc2nc(-c3ccc(I)cc3)cs2)C1 (stereo not drawn) , would its reported viability at 24 h, 50 ug/mL be below 40%?
false (0)

Report whether reported viability at 24 h, 50 ug/mL is lower than 40% (strictly) for `C/C(=N\Nc1nc(-c2ccc(I)cc2)cs1)c1ccncc1`
true (1)

Below 40% on viability at 24 h, 50 ug/mL? Entry `Clc1ccccc1C(c1ccccc1)(c1ccccc1)n1ccnc1`
true (1)

Quick check: viability at 24 h, 50 ug/mL of `CCCCC/C(C)=N/Nc1nc(-c2ccc(I)cc2)cs1` under 40%?
false (0)

Given `CCC(CC)=NNc1nc(-c2ccc(I)cc2)cs1` , is recorded viability at 24 h, 50 ug/mL strictly lower than 40%?
false (0)

Given the entry CC1CCC/C1=N\Nc1nc(-c2ccc(I)cc2)cs1 (stereo not drawn) , would its reported viability at 24 h, 50 ug/mL be below 40%?
true (1)
